protocol: BHET released, HPLC; higher = more BHET released; extreme values may be limits of the assay
conditionSet: PET substrate: aFilm; 60 °C; pH 9.5; 24 h
reportedMetric: BHET released
Remember to follow the number with its unit.

Write down BHET released measured for item ANPYERGPNPTDALLEARSGPFSVSEENVSRLSASGFGGGTIYYPRENNTYGAVAISPGYTGTEASIAWLGERIASHGFVVITIDTITTLDQPDSRAEQLNAALNHMINRASSTVRSRIDSSRLAVMGHSMGGGGSLRLASQRPDLKAAIPLTPWHLNKNWSSVTVPTLIIGADLDTIAPVATHAKPFYNSLPSSISKAYLELDGATHFAPNIPNKIIGKYSVAWLKRFVDNDTRYTQFLCPGPRDGLFGEVEEYRSTCPF [TfCut2]
0 mM

For the sequence QDNPYERGPDPTEDSIEAIRGPFSVATERVSSFASGFGGGTIYYPRETDEGTFGAVAVAPGFTASQGSMSWYGERVASHGFIVFTIDTNTRLDAPGQRGRQLLAALDYLVERSDRKVRERLDPNRLAVMGHSMGGGGSLEATVMRPSLKASIPLTPWHLDKTWGQVQVPTFIIGAELDTIAPVSTHAKPFYESLPSSLPKAYMELCGATHFAPNIPNTTIAKYVISWLKRFVDEDTRYSQFLCPNPTDRAICEYRSTCPY [Cut190*SS] , give its reported BHET released.
0 mM

Tell me its BHET released given ADNPYQRGPDPTNASIEAATGPFAVGTQPIVGASGFGGGQIYYPTDTSQTYGAVVIVPGFISVWAQLAWLGPRLASQGFVVIGIETSTITDLPDPRGDQALAALDWATTRSPVRSRIDRTRLAAAGWSMGGGGLRRAACQRPSLKAIVGMAPWNTEKNWSCVTVPTLFFGGSSDAVASPNDHAKPFYNSITRAEKDYIELCNADHFFPTSANTTMAKYFISWLKRWVDNDTRYTQFLCPGPSTGLFAPVCASMNTCPF [CaPETaseM9] as the entry.
0 mM

Give the measured BHET released for QTNPYARGPNPTAASLEASAGPFTVRSFTVARPVGYGAGTVYYPTNAGGTVGAIAIVPGYTATQSSINWWGPRLASHGFVVITIDTNSTLDKPESRSSQQMAALRQVASLNGTSSSPIYGKVDTARGGVMGWSMGGGGSLISAANNPSLKAAAVMAPWHSSTNFSSVTVPTLIFACENDRIAPVKEYALPIYDSMSLNAKQFLEICGGSHSCACSGNSNQALIGMKGVAWMKRFMDNDTRYSQFACENPNSTAVCDFRTANCS [HotPETase]
0 mM

Consider the sequence SNPYQRGPNPTRSALTADGPFSVRTYTISRLSVSGFGGGVIYYPTGTSLTFGGIAMSPGYTADASSLAWLGRRLASHGFVVLVINTNSRFDGPDSRASQLSAALNYLRTSSPSAVRARLDANRLAVAGHSMGGGGTLRIAEQNPSLKAAVPLTPWHTDKTFNTSVPVLIVGAEADTVAPVSQHAIPFYQNLPSTTPKVYVELCNASHIAPNSPNAAISVYTISWMKLWVDNDTRYRQFLCNVNDPALCDFRTNNRHCQ [LCC-ICCG RIP] . State its measured BHET released.
0.0202 mM

Look up and state reported BHET released for SNPYQRGPNPTRSALTADGPFSVATYTVSRLSVSGFGGGVIYYPTGTSLTFGGIAMSPGYTADASSLAWLGRRLASHGFVVLVINTNSRFDGPDSRASQLSAALNYLRTSSPSAVRARLDANRLAVAGHSMGGGGTLRIAEQNPSLKAAVPLTPWHTDKTFNTSVPVLIVGAEADTVAPVSQYAIPFYQNLPSTTPKVYVELCNASHIAPNSDNAAISVYTISWMKLWVDNDTRYRQFLCNVNDPALCDFRTNNRHCQ [LCC-A2]
0.0275 mM

src = the supplement of paper PMC11196671
